Values were extracted from ChEMBL document CHEMBL4219114.

# Species: Oryctolagus cuniculus
# measurement.protocol: Activation of rabbit skeletal muscle PP2A catalytic subunit at 19 to 395 uM using [32P]MLC20 as substrate pretreated for 10 mins followed by substrate addition measured after 10 mins by scintillation counting method relative to control
Activity calls are given as the source filed them. No cut-off for these calls is given here.

{"record.smiles": "COc1ccc(C[Se][C@@H]2O[C@H](COC(C)=O)[C@@H](OC(C)=O)[C@H](OC(C)=O)[C@H]2OC(C)=O)cc1", "Activity": "Active"}
{"record.smiles": "CC(=O)OC[C@H]1O[C@@H]([Se]C(=O)c2ccc(Cl)cc2)[C@H](OC(C)=O)[C@@H](OC(C)=O)[C@@H]1OC(C)=O", "Activity": "Active"}
{"record.smiles": "CC(=O)OC[C@H]1O[C@@H]([Se]Cc2ccccc2C(F)(F)F)[C@H](OC(C)=O)[C@@H](OC(C)=O)[C@@H]1OC(C)=O", "Activity": "Active"}
